Data credit: patent US10829493B2

# testName: Brain penetration in rats, brain to plasma ratios (Kp,brain, Kpuu,brain)
# Assay type: in vivo, Sprague-Dawley rats
# runConditions: Sprague-Dawley, rat, brain, intravenous, 1 mg/kg/hr, rat; unbound brain to plasma ratio, fu,brain from brain homogenate; read-out: Kpuu,brain

compound: CCn1cc(-c2cc3c(N4CCN(c5ncc([C@@](C)(N)c6ccc(F)cc6)cn5)CC4)ncnn3c2)cn1 [Compound 63, reference compound]
Kp uu at 24 h: 0.84

====

# testName: Rat brain protein binding in brain homogenate, equilibrium dialysis
# Type: in vitro ADME
# runConditions: equilibrium dialysis 5 hours at 37° C., read-out: fu,brain (brain homogenate)

compound: C[C@](N)(c1ccc(F)cc1)c1cnc(N2CCN(c3ncnn4cc(-c5cnn(CCO)c5)cc34)CC2)nc1
fraction unbound at 5 h, 1 μM: 0.0029

compound: CCn1cc(-c2cc3c(N4CCN(c5ncc([C@@](C)(N)c6ccc(F)cc6)cn5)CC4)ncnn3c2)cn1 [Compound 63, reference compound]
fraction unbound at 5 h, 1 μM: 0.001

====

# Tested on: UT-7 cells
# testName: UT-7 cell proliferation with SCF stimulation as a measure of wild-type KIT activity (CellTiter-Glo)
# Type: cell-based, human
# runConditions: Homo sapiens, UT7, 72 h, SCF-stimulated UT-7 cell proliferation
# Method: UT-7 Cell Proliferation with SCF Stimulation Assay as a Measure of Wild-Type KIT Activity […] Inhibition of SCF-stimulated UT-7 cell proliferation was assessed using the CellTiter-Glo assay that quantifies the amount of adenosine triphosphate (ATP) present, which is a readout of metabolically active cells and is directly proportional to the number of viable cells in culture. […]

compound: C[C@](N)(c1ccc(F)cc1)c1cnc(N2CCN(c3ncnn4cc(-c5cnn(CCO)c5)cc34)CC2)nc1
IC50: < 90 nM
--
compound: C[C@@H](CO)n1cc(-c2cc3c(N4CCN(c5ncc([C@@](C)(N)c6ccc(F)cc6)cn5)CC4)ncnn3c2)cn1
IC50: < 90 nM
--
compound: C[C@](N)(c1ccc(F)cc1)c1cnc(N2CCN(c3ncnn4cc(-c5cnn([C@@H]6CCOC6)c5)cc34)CC2)nc1
IC50: 150 to 200 nM
--
compound: C[C@](N)(c1ccc(F)cc1)c1cnc(N2CCN(c3ncnn4cc(-c5cnn([C@H]6COC[C@H]6O)c5)cc34)CC2)nc1 (single isomer, unassigned)
IC50: 90.1 to 150 nM
--
compound: C[C@](N)(c1ccc(F)cc1)c1cnc(N2CCN(c3ncnn4cc(-c5cnn(C6(CO)CC6)c5)cc34)CC2)nc1
IC50: 90.1 to 150 nM
--
compound: C[C@H](CO)n1cc(-c2cc3c(N4CCN(c5ncc([C@@](C)(N)c6ccc(F)cc6)cn5)CC4)ncnn3c2)cn1
IC50: < 90 nM

====

# testName: Monkey brain to plasma ratio (Kp, Kpuu) after iv bolus and 2-hour iv infusion
# Format: in vivo
# runConditions: brain, IV bolus followed by 2-hour iv infusion
# Method: A single IV bolus dose followed by a 2-hour iv infusion of the compound was administered to the monkey (3 monkeys/compound). Blood was collected from a femoral vein predose, right after the bolus administration and at the end of the infusion. The monkey was euthanized after the infusion and brain tissue was collected. […] Kpuu was calculated by taking into consideration the fu,plasma and fu,brain as discussed above.
assayReadout: Kp at 2 h

molecule: CCn1cc(-c2cc3c(N4CCN(c5ncc([C@@](C)(N)c6ccc(F)cc6)cn5)CC4)ncnn3c2)cn1 [Compound 63, reference compound]
reportedMeasurement: 1.86

====

# testedSystem: CYP2D6 (Homo sapiens (Human), UniProt P10635)
# Sequence (P10635 whole entry): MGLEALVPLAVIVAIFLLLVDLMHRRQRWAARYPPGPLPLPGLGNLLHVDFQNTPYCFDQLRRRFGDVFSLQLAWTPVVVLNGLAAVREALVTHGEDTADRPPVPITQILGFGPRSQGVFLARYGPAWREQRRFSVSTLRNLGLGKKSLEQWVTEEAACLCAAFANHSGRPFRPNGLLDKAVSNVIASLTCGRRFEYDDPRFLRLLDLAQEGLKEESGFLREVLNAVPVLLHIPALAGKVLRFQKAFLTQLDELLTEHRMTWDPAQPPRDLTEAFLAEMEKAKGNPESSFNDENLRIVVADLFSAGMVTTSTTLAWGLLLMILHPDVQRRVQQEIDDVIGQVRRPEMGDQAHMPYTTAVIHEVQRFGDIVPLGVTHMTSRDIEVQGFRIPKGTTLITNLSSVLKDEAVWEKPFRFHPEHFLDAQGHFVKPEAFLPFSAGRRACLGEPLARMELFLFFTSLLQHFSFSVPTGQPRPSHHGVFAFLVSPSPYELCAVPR

molecule: C[C@](N)(c1ccc(F)cc1)c1cnc(N2CCN(c3ncnn4cc(-c5cnn(CCO)c5)cc34)CC2)nc1 [Compound 4]
testedSystem: CYP2D6 (Homo sapiens (Human), UniProt P10635)
IC50: 10 µM

====

# testName: Pharmacokinetics following single intravenous and oral administration in rats
# Assay type: in vivo, Sprague-Dawley rats
# runConditions: Sprague-Dawley, blood; rat, iv 1 mg/kg; read-out: Rat IV PK Cl

compound: C[C@](N)(c1ccc(F)cc1)c1cnc(N2CCN(c3ncnn4cc(-c5cnn(CCO)c5)cc34)CC2)nc1 [Compound 4]
clearance: 12 mL/min/kg

====

# testName: Brain penetration in rats, brain to plasma ratios (Kp,brain, Kpuu,brain)
# Assay type: in vivo, Sprague-Dawley rats
# runConditions: Sprague-Dawley, rat, brain, intravenous, 1 mg/kg/hr, rat; from total mean brain concentration and fu,brain (homogenate); read-out: Unbound concentration, Brain
Reported concentration at 24 h is given for each of the following compounds.

compound: C[C@](N)(c1ccc(F)cc1)c1cnc(N2CCN(c3ncnn4cc(-c5cnn(CCO)c5)cc34)CC2)nc1
concentration at 24 h (ng/mL): 0.53
--
compound: CCn1cc(-c2cc3c(N4CCN(c5ncc([C@@](C)(N)c6ccc(F)cc6)cn5)CC4)ncnn3c2)cn1 [Compound 63, reference compound]
concentration at 24 h (ng/mL): 1.7

====

# System: UT-7 cells
# testName: UT-7 cell proliferation with SCF stimulation as a measure of wild-type KIT activity (CellTiter-Glo)
# Type: cell-based, human
# runConditions: Homo sapiens, UT7, 72 h, SCF-stimulated UT-7 cell proliferation
assayReadout: IC50

compound: C[C@](N)(c1ccc(F)cc1)c1cnc(N2CCN(c3ncnn4cc(-c5cnn(C6CCOCC6)c5)cc34)CC2)nc1 [Compound 16]
reportedMeasurement: 150 to 200 nM
--
compound: C[C@](N)(c1ccc(F)cc1)c1cnc(N2CCN(c3ncnn4cc(-c5cnn(CC6COC6)c5)cc34)CC2)nc1 [Compound 8]
reportedMeasurement: < 90 nM
--
compound: C[C@](N)(c1ccc(F)cc1)c1cnc(N2CCN(c3ncnn4cc(-c5cnn([C@H]6CC[C@@H]6O)c5)cc34)CC2)nc1 (single isomer, unassigned) [Compound 21]
reportedMeasurement: 90.1 to 150 nM
--
compound: C[C@](N)(c1ccc(F)cc1)c1cnc(N2CCN(c3ncnn4cc(-c5cnn([C@H]6COC[C@@H]6O)c5)cc34)CC2)nc1 (single isomer, unassigned) [Compound 18]
reportedMeasurement: 90.1 to 150 nM
--
compound: C[C@](N)(c1ccc(F)cc1)c1cnc(N2CCN(c3ncnn4cc(-c5cnn([C@H]6CCOC6)c5)cc34)CC2)nc1 [Compound 15]
reportedMeasurement: 150 to 200 nM
--
compound: CCn1cc(-c2cc3c(N4CCN(c5ncc([C@@](C)(N)c6ccc(F)cc6)cn5)CC4)ncnn3c2)cn1 [Compound 63, reference compound]
reportedMeasurement: 150 to 200 nM
--
compound: C[C@](N)(c1ccc(F)cc1)c1cnc(N2CCN(c3ncnn4cc(-c5cnn(CC6(O)CC6)c5)cc34)CC2)nc1 [Compound 12]
reportedMeasurement: 90.1 to 150 nM
--
compound: C[C@](N)(c1ccc(F)cc1)c1cnc(N2CCN(c3ncnn4cc(-c5cnn([C@H]6C[C@@H](O)C6)c5)cc34)CC2)nc1 [Compound 10]
reportedMeasurement: < 90 nM
--
compound: CC(C)(O)Cn1cc(-c2cc3c(N4CCN(c5ncc([C@@](C)(N)c6ccc(F)cc6)cn5)CC4)ncnn3c2)cn1 [Compound 1]
reportedMeasurement: 150 to 200 nM
--
compound: C[C@](N)(c1ccc(F)cc1)c1cnc(N2CCN(c3ncnn4cc(-c5cnn([C@@H]6CC[C@H]6O)c5)cc34)CC2)nc1 (single isomer, unassigned) [Compound 22]
reportedMeasurement: 90.1 to 150 nM
--
compound: CC(C)(CO)n1cc(-c2cc3c(N4CCN(c5ncc([C@@](C)(N)c6ccc(F)cc6)cn5)CC4)ncnn3c2)cn1 [Compound 2]
reportedMeasurement: 150 to 200 nM
--
compound: C[C@](N)(c1ccc(F)cc1)c1cnc(N2CCN(c3ncnn4cc(-c5cnn([C@@H]6COC[C@@H]6O)c5)cc34)CC2)nc1 (single isomer, unassigned) [Compound 17]
reportedMeasurement: 90.1 to 150 nM

====

# testedSystem: CYP3A4 (Homo sapiens (Human), UniProt P08684)
# Sequence (P08684 whole entry): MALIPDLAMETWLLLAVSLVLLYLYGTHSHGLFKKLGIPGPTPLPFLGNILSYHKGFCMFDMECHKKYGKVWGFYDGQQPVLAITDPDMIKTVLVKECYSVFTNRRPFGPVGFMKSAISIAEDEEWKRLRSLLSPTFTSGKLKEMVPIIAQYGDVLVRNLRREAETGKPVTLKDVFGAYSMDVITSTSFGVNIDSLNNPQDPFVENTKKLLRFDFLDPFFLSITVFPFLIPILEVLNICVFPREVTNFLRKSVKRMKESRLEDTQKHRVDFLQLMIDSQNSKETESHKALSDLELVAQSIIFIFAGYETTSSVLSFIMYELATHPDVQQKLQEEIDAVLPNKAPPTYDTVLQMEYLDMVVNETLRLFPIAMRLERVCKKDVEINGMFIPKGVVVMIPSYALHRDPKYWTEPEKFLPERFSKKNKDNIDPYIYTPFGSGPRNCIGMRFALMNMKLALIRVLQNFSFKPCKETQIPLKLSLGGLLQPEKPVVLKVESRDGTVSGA
# testName: CYP inhibition in human liver microsomes, CYP3A4 (midazolam/testosterone)
# Assay type: in vitro ADME
# runConditions: as measured according to Example 5; substrate not stated (embodiment 14); read-out: IC50 for CYP3A4
pIC50: −log10 of the molar value.

smilesRepresentation: C[C@](N)(c1ccc(F)cc1)c1cnc(N2CCN(c3ncnn4cc(-c5cnn(CCO)c5)cc34)CC2)nc1
pIC50: > 5.00

====

Reported Kp uu at 24 h is given for each of the following molecules.
# testName: Brain penetration in rats, brain to plasma ratios (Kp,brain, Kpuu,brain)
# Assay type: in vivo, Sprague-Dawley rats
# runConditions: Sprague-Dawley, rat, brain, intravenous, 1 mg/kg/hr, rat brain slice; read-out: Rat Kp, uu Brain slice
# Excerpt: To understand the brain penetration, brain to plasma ratios of the compounds were obtained in Sprague-Dawley (SD) rats. In vivo equilibrium distribution between blood and brain in preclinical species such as rats is a commonly used parameter to evaluate brain penetration. […]

molecule: C[C@](N)(c1ccc(F)cc1)c1cnc(N2CCN(c3ncnn4cc(-c5cnn([C@@H]6COC[C@H]6O)c5)cc34)CC2)nc1 (single isomer, unassigned) [Compound 19]
Kp uu at 24 h: 0.04
//
molecule: C[C@](N)(c1ccc(F)cc1)c1cnc(N2CCN(c3ncnn4cc(-c5cnn(CC6COC6)c5)cc34)CC2)nc1 [Compound 8]
Kp uu at 24 h: ≤ 0.1
//
molecule: C[C@](N)(c1ccc(F)cc1)c1cnc(N2CCN(c3ncnn4cc(-c5cnn([C@H]6CCOC6)c5)cc34)CC2)nc1 [Compound 15]
Kp uu at 24 h: ≤ 0.1
//
molecule: C[C@](N)(c1ccc(F)cc1)c1cnc(N2CCN(c3ncnn4cc(-c5cnn([C@H]6CC[C@@H]6O)c5)cc34)CC2)nc1 (single isomer, unassigned) [Compound 21]
Kp uu at 24 h: ≤ 0.1
//
molecule: C[C@](N)(c1ccc(F)cc1)c1cnc(N2CCN(c3ncnn4cc(-c5cnn(C6CCOCC6)c5)cc34)CC2)nc1 [Compound 16]
Kp uu at 24 h: ≤ 0.1
